# IC50 values compiled below
Target: IDH2-R140Q (Homo sapiens, UniProt P48735, R140Q)
Sequence (P48735 40-452 R140Q): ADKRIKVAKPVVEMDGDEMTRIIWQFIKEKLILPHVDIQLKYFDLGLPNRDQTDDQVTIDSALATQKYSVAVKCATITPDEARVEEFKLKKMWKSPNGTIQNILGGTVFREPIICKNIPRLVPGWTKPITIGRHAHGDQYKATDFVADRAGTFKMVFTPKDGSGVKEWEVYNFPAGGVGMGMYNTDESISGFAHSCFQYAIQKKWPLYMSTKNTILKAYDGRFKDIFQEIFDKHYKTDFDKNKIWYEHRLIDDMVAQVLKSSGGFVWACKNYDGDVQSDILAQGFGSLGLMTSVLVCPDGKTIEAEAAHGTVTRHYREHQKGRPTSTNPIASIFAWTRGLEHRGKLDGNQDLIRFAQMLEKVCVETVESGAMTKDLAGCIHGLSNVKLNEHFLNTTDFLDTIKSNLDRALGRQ
Test: Fluorescent determination of IDH2-R140Q cell activity (2-HG in U87MGR140Q cells)
Settings: 72 hours incubation, read-out: IC50 (2-HG inhibition)
I only need the number, in nM, no unit after it.

Worked examples follow.
>>> df
                                   molecule  unit_name  reading
0  CC(C)Nc1nc(Nc2ccc3ccccc3n2)nc(C2=C(F)C(O)CCC2)n1 (stereo not shown)         nM     1340
1  [2H]C1([2H])CCC(c2nc(Nc3ccnc(C(F)(F)F)c3)nc(NC([2H])(C([2H])([2H])[2H])C([2H])([2H])[2H])n2)=C(F)C1O (stereo not shown)         nM       21

Please list IC50 recorded for the molecule CC(C)Nc1nc(N[C@H](C)C(F)(F)F)nc(C2=C(F)C(O)C(F)CC2)n1 (single isomer, unassigned) [Compound 95]
43

Fill in reported IC50 for this entry: CC(C)Nc1nc(Nc2ccc3c(cnn3C)c2)nc(C2=C(F)C(O)CCC2)n1 (stereo not shown)
1630

###

Below, each of the molecules is paired with its reported pIC50 value.
Biological target: IDH2-R140Q (Homo sapiens, UniProt P48735, R140Q)
Assay: Fluorescent determination of IDH2-R140Q cell activity (2-HG in U87MGR140Q cells)
Conditions: 72 hours incubation, read-out: IC50 (2-HG inhibition)
In textbook form, pIC50 equals minus log to base ten of the concentration in mol/L.

# example entries with known answers
>>> print(df.to_string())
                                   molecule  reading
0  C[C@H](Nc1nc(NCC(F)(F)F)nc(C2=C(F)C(O)C(F)(F)CC2)n1)C(F)(F)F (mixture of isomers)     6.96
1  CCCNc1nc(N[C@H](C)C(F)(F)F)nc(C2=C(F)C(O)CCC2)n1 (stereo partly shown)     7.00
2  OC1CCCC(c2nc(NC3CC3)nc(NC3CC(F)(F)C3)n2)=C1F (stereo not shown) [Compound 27]     6.83

# context switch: different molecule, same pIC50
Answer with the recorded pIC50 of C[C@@H](Nc1nc(NCC2CC(F)(F)C2)nc(C2=C(F)C(O)CCC2)n1)C(F)(F)F (mixture of isomers) only.
6.43

###

Target: IDH1-R132H (Homo sapiens, UniProt O75874, R132H)
Sequence (O75874 whole entry R132H): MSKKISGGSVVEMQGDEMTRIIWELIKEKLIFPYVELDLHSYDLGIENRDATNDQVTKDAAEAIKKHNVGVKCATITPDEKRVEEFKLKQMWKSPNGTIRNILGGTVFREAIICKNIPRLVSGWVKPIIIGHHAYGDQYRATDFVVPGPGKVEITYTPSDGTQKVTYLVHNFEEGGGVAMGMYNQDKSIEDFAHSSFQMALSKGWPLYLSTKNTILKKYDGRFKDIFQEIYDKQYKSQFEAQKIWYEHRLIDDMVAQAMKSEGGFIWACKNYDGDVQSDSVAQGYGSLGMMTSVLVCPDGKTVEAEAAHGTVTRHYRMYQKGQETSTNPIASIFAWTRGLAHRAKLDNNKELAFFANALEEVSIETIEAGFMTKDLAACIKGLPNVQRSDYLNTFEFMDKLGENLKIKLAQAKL
Assay: Fluorescent determination of IDH1-R132H cell activity (2-HG in U87MGR132H cells)
Conditions: 2-HG inhibition in U87MGR132H cells transfected with IDH1-R132H mutant plasmid
property: log10 IC50 (log10 of the value in nM)
Response schema: value (number) is log10 of IC50 in units of nM.

Using known records, supply log10 IC50 for C[C@@H](Nc1nc(N[C@H](C)C(F)(F)F)nc(C2=C(F)C(O)C(F)CC2)n1)C(F)(F)F (some centres unmarked) [Compound 268]
2.97

State, in one line, measured log10 IC50 of CCCNc1nc(N[C@H](C)C(F)(F)F)nc(C2=C(F)C(O)[C@@H](F)CC2)n1 (some centres unmarked)
3.18

Look up and report measured log10 IC50 for this entry: CC(C)Nc1nc(NC2CC(F)(F)C2)nc(C2=C(F)C(O)C(F)(F)CC2)n1 (centres unmarked)
3.35

Return log10 IC50 for the following compound: CC(C)[C@H](C)Nc1nc(N[C@H](C)C(F)(F)F)nc(C2=C(F)C(O)CCC2)n1 (mixture of isomers)
3.50

Tell me measured log10 IC50 for CC(C)(C)ONc1nc(Nc2ccnc(Cl)c2)nc(C2=C(F)C(O)CCC2)n1 (centres unmarked) please.
3.75

Please supply the value of reported log10 IC50 for the item C[C@H](Nc1nc(NC2CC(F)(F)C2)nc(C2=C(F)C(O)C(F)(F)CC2)n1)C(F)(F)F (mixture of isomers)
2.54

###

Experiment: Metabolic stability test in liver microsomes (mouse)
Type: in vitro ADME
Conditions: percentage of remaining compound after incubation for 30 minutes vs 0 minute; 1 μM compound; 0.5 mg/mL liver microsomes; 37° C.
Method: Male CD1 mouse liver microsomes was supplied by Research Institute for Liver Diseases (Shanghai) Co., Ltd. Male SD rat liver microsomes was supplied by BioreclamationIVT in US. Phenacetin, glucose-6-phosphate (G-6-P), glucose-6-phosphate dehydrogenase (G-6-PD), and nicotinamide adenine dinucleotide phosphate (NADP) were supplied by Sigma-Aldrich (Missouri, USA). […] The concentration of test compound was determined using LC-MS/MS method. […]
Criterion: Mouse liver microsome stability strictly less than 80%. Met: criterion met. Not met: criterion not met.

For orientation, consider the following solved cases.
>>> df
                                   compound                cat
0  C[C@H](Nc1nc(NC2CC(F)(F)C2)nc(C2=C(F)C(O)C(F)(F)CC2)n1)C(F)(F)F (mixture of isomers)  criterion not met
1  C[C@@H](Nc1nc(N[C@@H]2CCC(F)(F)C2)nc(C2=C(F)C(O)C(F)(F)CC2)n1)C(F)(F)F (mixture of isomers)      criterion met
2  C[C@@H](Nc1nc(N[C@@H]2CCC(F)(F)C2)nc(C2=C(F)C(O)C(F)CC2)n1)C(F)(F)F (single isomer, unassigned)      criterion met
3  [2H]C1([2H])CCC(c2nc(N[C@H](C)C(F)(F)F)nc(N[C@H](C)C(F)(F)F)n2)=C(F)C1([2H])O (mixture of isomers)  criterion not met

Strictly below 80% in Mouse liver microsome stability? [2H]C1([2H])CCC(c2nc(NC3CC(F)(F)C3)nc(NC3CC(F)(F)C3)n2)=C(F)C1O (stereo not drawn)
criterion met

hey, is Mouse liver microsome stability for [2H]C1(O)C(F)=C(c2nc(N[C@H](C)C(F)(F)F)nc(N[C@H](C)C(F)(F)F)n2)CCC1(F)F (mixture of isomers) lower than 80% or not?
criterion not met

# check: Mouse liver microsome stability < 80% for C[C@@H](Nc1nc(N[C@H](C)C(F)(F)F)nc(C2=C(F)C(O)C(F)CC2)n1)C(F)(F)F (single isomer, unassigned) [Compound 97]
criterion not met

Criterion: Mouse liver microsome stability strictly below 80%. Is it met by CC(C)Nc1nc(N[C@H](C)C(F)(F)F)nc(C2=C(F)C(O)CCC2)n1 (mixture of isomers) ?
criterion not met

I'd appreciate it if you could check whether C[C@@H](Nc1nc(NC2CC(F)(F)C2)nc(C2=C(F)C(O)C(F)(F)CC2)n1)C(F)(F)F (stereo partly drawn) has Mouse liver microsome stability smaller than 80%.
criterion not met

Decide: Mouse liver microsome stability of C[C@@H](Nc1nc(N[C@H](C)C(F)(F)F)nc(C2=C(F)C(O)CCC2)n1)C(F)(F)F (mixture of isomers) strictly below 80%?
criterion not met

###

Target: IDH2-R140Q (Homo sapiens, UniProt P48735, R140Q)
Assay: Fluorescent determination of IDH2-R140Q cell activity (2-HG in U87MGR140Q cells)
Settings: 72 hours incubation, read-out: IC50 (2-HG inhibition)
Each item that follows carries a reported IC50.
A number alone suffices; assume nM.

Some molecules with recorded IC50:
In [3]: df
Out[3]:
                                   molecule  reading
0  CC(C)Nc1nc(NC2CC(F)(F)C2)nc(C2=C(F)C(O)C(F)(F)CC2)n1 (centres unmarked) [Compound 261]       94
1  CC(C)(C)ONc1nc(Nc2cc(C#N)ccn2)nc(C2=C(F)C(O)CCC2)n1 (centres unmarked) [Compound 60]      590

Alright, here's another molecule for you.
Note IC50 for the molecule shown: CC(CO)Nc1nc(N[C@H](C)C(F)(F)F)nc(C2=CC(O)CCC2)n1 (mixture of isomers) [Compound 184]
3780
